Hi there, I'd appreciate the recorded pIC50 for every entry that follows.
Tested on: C6 (rat brain tumour) cell lines
Assay: BrdU cell proliferation ELISA, C6
Format: cell-based
Conditions: C6, BrdU ELISA
Numbers only, as −log10 of the molar value.

Worked cases, answers included:
- molecule: "O=C(OC(Cc1ccc(O)c(O)c1)C(=O)O)c1cc(-c2ccc(O)c(O)c2)c2cc(O)c(O)cc2c1 (stereo not drawn)"
  experimental target: "C6 (rat brain tumour) cell lines"
  pIC50: 3.77
- molecule: "N.N.[Cl][Pt][Cl] [Cisplatin, reference compound]"
  experimental target: "C6 (rat brain tumour) cell lines"
  pIC50: 4.21

Could you now consider this next molecule?
Prompt line: # pIC50 lookup, item O=C(/C=C/c1ccc(O)c(O)c1)O[C@H](Cc1ccc(O)c(O)c1)C(=O)O
Response line: 3.60
